Biological target: hMAO-B (Homo sapiens)
Construct: purchased Sigma-Aldrich (St. Louis, MO, USA)
Sequence (P27338 1-520): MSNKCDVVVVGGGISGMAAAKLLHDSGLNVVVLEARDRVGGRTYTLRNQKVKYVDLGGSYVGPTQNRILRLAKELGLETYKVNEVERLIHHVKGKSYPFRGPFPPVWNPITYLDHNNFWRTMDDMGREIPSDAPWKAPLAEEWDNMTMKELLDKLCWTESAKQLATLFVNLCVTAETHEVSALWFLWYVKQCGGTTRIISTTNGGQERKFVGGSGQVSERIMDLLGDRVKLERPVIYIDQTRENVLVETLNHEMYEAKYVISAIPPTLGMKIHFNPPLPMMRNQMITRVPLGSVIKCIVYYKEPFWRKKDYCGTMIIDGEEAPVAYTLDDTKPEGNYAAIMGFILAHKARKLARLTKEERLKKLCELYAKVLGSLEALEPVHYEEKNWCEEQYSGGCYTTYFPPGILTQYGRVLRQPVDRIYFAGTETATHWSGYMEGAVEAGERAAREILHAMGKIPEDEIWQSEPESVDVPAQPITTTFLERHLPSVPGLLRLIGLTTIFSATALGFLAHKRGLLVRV
Experiment: biochemical
Settings: residual enzyme activity, compound at 1 µM
The entries below are paired with their reported % of MAO-B activity (1 µM).
readout_type: % of MAO-B activity (1 µM) (%)

> print(dat)
                                   compound  u  meas.value
1            C=CCNc1c2c(nc3ccccc13)CCCC2.Cl  %          48
2        C#CCNc1c2c(nc3ccc(OC)cc13)CCCC2.Cl  %          74
3  C#CCNc1c2c(nc3ccc(Oc4ccccc4)cc13)CCCC2.Cl  %           8
4  Nc1c2c(nc3cc(Cl)ccc13)CCCC2 [6-Chlorotacrine, 6-chlorotacrine, reference compound]  %          80
5  C#CCN(CC#C)CCCNc1c2c(nc3ccc(OC)cc13)CCCC2.Cl.Cl  %         169

====

molecular target: hMAO-B (Homo sapiens, UniProt P27338); construct: purchased Sigma-Aldrich (St. Louis, MO, USA); experiment: biochemical; details: residual enzyme activity, compound at 1 µM
The entries below are paired with their reported % of MAO-B activity (1 µM).
readout_type: % of MAO-B activity (1 µM)

> print(dat)
                                   compound  meas.value
1  C=CCN(CC=C)c1c2c(nc3ccc(Oc4ccccc4)cc13)CCCC2.Cl         16%
2  COc1ccc2nc3c(c(N)c2c1)CCCC3 [Compound 7-MEOTA, 7-methoxytacrine, reference compound]         78%
3  C#CCN(CC#C)CCCNc1c2c(nc3ccccc13)CCCC2.Cl.Cl        148%

====

Target: hMAO-B (Homo sapiens, UniProt P27338)
Construct: purchased Sigma-Aldrich (St. Louis, MO, USA)
Sequence (P27338 1-520): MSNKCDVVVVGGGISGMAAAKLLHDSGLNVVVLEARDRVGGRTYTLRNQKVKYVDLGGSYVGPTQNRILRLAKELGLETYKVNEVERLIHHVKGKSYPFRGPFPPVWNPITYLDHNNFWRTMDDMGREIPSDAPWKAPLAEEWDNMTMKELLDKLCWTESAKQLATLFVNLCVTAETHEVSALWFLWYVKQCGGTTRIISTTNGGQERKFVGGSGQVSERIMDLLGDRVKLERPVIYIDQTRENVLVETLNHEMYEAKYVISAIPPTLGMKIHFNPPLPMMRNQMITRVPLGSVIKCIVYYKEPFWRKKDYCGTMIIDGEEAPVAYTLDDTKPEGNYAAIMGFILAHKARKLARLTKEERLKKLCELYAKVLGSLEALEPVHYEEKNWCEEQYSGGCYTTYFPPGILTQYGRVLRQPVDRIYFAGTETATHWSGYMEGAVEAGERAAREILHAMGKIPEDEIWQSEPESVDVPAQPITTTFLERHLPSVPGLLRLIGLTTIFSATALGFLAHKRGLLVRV
Assay: biochemical
Details: residual enzyme activity, compound at 10 µM
readout_type: % of MAO-B activity (10 µM) (%)

> print(dat)
                                    molecule  meas.value
 1  C#CCN(CC#C)CCCNc1c2c(nc3cc(Cl)ccc13)CCCC2.Cl.Cl [Compound 22]          50
 2  C#CCN(CC#C)c1c2c(nc3cc(Cl)ccc13)CCCC2 [Compound 10]         141
 3  C#CCN(CC#C)CCCNc1c2c(nc3ccccc13)CCCC2.Cl.Cl [Compound 20]          96
 4  C#CCNc1c2c(nc3ccccc13)CCCC2 [Compound 9]          61
 5  C=CCNc1c2c(nc3ccccc13)CCCC2.Cl [Compound 2]          72
 6  C#CCN(CC#C)c1c2c(nc3ccc(Oc4ccccc4)cc13)CCCC2.Cl [Compound 14]          14
 7  C#CCN(CC#C)CCCNc1c2c(nc3ccc(OC)cc13)CCCC2.Cl.Cl [Compound 24]          82
 8  Nc1c2c(nc3cc(Cl)ccc13)CCCC2 [6-Chlorotacrine, 6-chlorotacrine, reference compound]          84
 9  C=CCNc1c2c(nc3ccc(OC)cc13)CCCC2.Cl [Compound 5]          70
10  C#CCNCCCNc1c2c(nc3ccccc13)CCCC2.Cl.Cl [Compound 21]          90
11  C=CCN(CC=C)c1c2c(nc3ccccc13)CCCC2.Cl [Compound 1]          62
12  C=CCNc1c2c(nc3cc(Cl)ccc13)CCCC2.Cl [Compound 3]          64
13  C#CCN(CC#C)c1c2c(nc3ccccc13)CCCC2.Cl [Compound 8]          47
14  C=CCN(CC=C)c1c2c(nc3ccc(OC)cc13)CCCC2.Cl [Compound 4]          61
15  C#CCNc1c2c(nc3ccc(Oc4ccccc4)cc13)CCCC2.Cl [Compound 15]           3
16  C#CCN(CC#C)c1c2c(nc3ccc(OC)cc13)CCCC2.Cl [Compound 12]          45
17  C=CCNc1c2c(nc3ccc(Oc4ccccc4)cc13)CCCC2.Cl [Compound 7]           2
18  C#CCNc1c2c(nc3ccc(OC)cc13)CCCC2.Cl [Compound 13]          62
19  C=CCN(CC=C)c1c2c(nc3ccc(Oc4ccccc4)cc13)CCCC2.Cl [Compound 6]           4
20  COc1ccc2nc3c(c(N)c2c1)CCCC3 [Compound 7-MEOTA, 7-methoxytacrine, reference compound]          76
21  C=CCNc1ccnc2cc(Cl)ccc12.Cl [Compound 27]         127
22  C#CCNc1ccnc2cc(Cl)ccc12.Cl [Compound 28]          61
23  C#CCNCCCNc1c2c(nc3ccc(Oc4ccccc4)cc13)CCCC2.Cl.Cl [Compound 26]           4
